target: 14-3-3γ (Homo sapiens); construct: made in house; host or cells: E. coli NiCo21 (DE3); assay: Fluorescence anisotropy (FA) binary binding study: 14-3-3 titrated to fluorescein-labelled peptide; conditions: Table S4; calculated from FA Kd; mean of n = 3
Sequence (P61981 whole entry): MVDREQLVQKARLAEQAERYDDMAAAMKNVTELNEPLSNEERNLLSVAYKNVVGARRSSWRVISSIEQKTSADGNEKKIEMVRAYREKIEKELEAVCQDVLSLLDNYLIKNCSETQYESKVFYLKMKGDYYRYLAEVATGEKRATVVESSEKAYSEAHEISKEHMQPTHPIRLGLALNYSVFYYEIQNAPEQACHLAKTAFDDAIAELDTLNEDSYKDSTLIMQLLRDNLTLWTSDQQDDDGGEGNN
Where a SMILES comes first, the peptide text is derived from it. [ ]: non-standard residue; d: D form. ξ: configuration not given here. Phe(4-NO2) = N[C@@H](Cc1ccc([N+](=O)[O-])cc1)C(=O)O; ξAla(4-thiazolyl) = NC(Cc1cscn1)C(=O)O; pS = N[C@@H](COP(=O)(O)O)C(=O)O; β3hS = N[C@@H](CO)CC(=O)O; Nva = CCC[C@H](N)C(=O)O; βAla = NCCC(=O)O
ENDPOINT: ΔG
Put your answer as a value accompanied by its unit after it.

MOLECULE: CCC[C@H](NC(=O)[C@H](N)CCCCN)C(=O)N[C@@H](Cc1ccc([N+](=O)[O-])cc1)C(=O)NC(Cc1cscn1)C(=O)N[C@@H](COP(=O)(O)O)C(=O)N[C@@H](Cc1ccc([N+](=O)[O-])cc1)C(=O)N[C@@H](CO)CC(=O)NCCC(=O)N[C@@H](Cc1ccc(O)cc1)C(=O)N[C@@H](CCCCN)C(N)=O (stereo partly drawn) [5a] (H-[dK][Nva][Phe(4-NO2)][ξAla(4-thiazolyl)][pS][Phe(4-NO2)][β3hS][βAla]YK-NH2; N-terminus and C-terminus assumed)
SYSTEM: 14-3-3γ (Homo sapiens)
ENDPOINT: ΔG
VAL: -7.9 kcal/mol

We next turn to a different molecule, shown below.
Given item CCC[C@H](NC(=O)[C@H](N)CCCCN)C(=O)N[C@@H](Cc1ccc([N+](=O)[O-])cc1)C(=O)NC(Cc1cscn1)C(=O)N[C@@H](COP(=O)(O)O)C(=O)N[C@@H](C)C(=O)N[C@@H](CO)CC(=O)NCCC(=O)N[C@@H](Cc1ccc([N+](=O)[O-])cc1)C(=O)N[C@@H](CCCCN)C(N)=O (stereo partly drawn) [4c] (H-[dK][Nva][Phe(4-NO2)][ξAla(4-thiazolyl)][pS]A[β3hS][βAla][Phe(4-NO2)]K-NH2; N-terminus and C-terminus assumed) , the value recorded as its ΔG is -8.0 kcal/mol
